target_or_test_system: human recombinant COX2 (hCOX2) (UniProt P35354)
test_protocol: LCMS-based COX2 enzymatic inhibition assay (PGE2 quantification)
Assay type: biochemical
Set-up: COX2 2 minutes pge2/pge2d4 area ratio Avg; other: 2 minutes; readout pge2/pge2d4 area ratio; average; COX2 2 minutes pge2/pge2d4 area ratio Avg; LLE; average LLE; COX2 2 minutes pge2 area (counts) Avg; readout pge2 area (counts); other: 2 min; "ovine COX2 (oCOX2), human recombinant COX2 (hCOX2)"
settings: 2 minutes; readout pge2 area (counts); average LLE
property: COX2 2 minutes pge2 area (counts) Avg. LLE
Provide a numeric answer; units are not to be included.

Prompt: So what does the record say about COX2 2 minutes pge2 area (counts) Avg. LLE for CS(=O)(=O)c1ccc(-c2cccc(NCc3ccno3)n2)cc1 [Compound 175] ?
Completion: 4.685

Prompt: CS(=O)(=O)c1ccc(-c2cncc(NCc3cnco3)n2)cc1 [Compound 215] ?
Completion: 4.845

Prompt: Consider next the compound CS(=O)(=O)c1ccc(-c2cccc(NCc3ccsc3)n2)cc1 [Compound 11] in the same way.
Completion: 4.6244

Prompt: And for CS(=O)(=O)c1ccc(-c2cncc(SCc3cocn3)n2)cc1 [Compound 258] ?
Completion: 3.462

Prompt: Same again, this time with CS(=O)(=O)c1ccc(-c2cncc(SCc3cccs3)n2)cc1 [Compound 18]
Completion: 5.018

Prompt: What do we get for CS(=O)(=O)c1ccc(-c2cncc(/C=C\c3cccs3)n2)cc1 [Compound 65] ?
Completion: 4.681

Prompt: Also check CS(=O)(=O)c1ccc(-c2cncc(NC[C@H]3CCCO3)n2)cc1 [Compound 263]
Completion: 4.469

Prompt: Another compound: CS(=O)(=O)c1ccc(-c2cnc(C(F)(F)F)c(NCc3cccs3)n2)cc1 [Compound 144]
Completion: 3.637

Prompt: What do we get for COc1ncc(NCc2cocn2)nc1-c1ccc(S(C)(=O)=O)cc1 [Compound 291] ?
Completion: 3.954

====

target_or_test_system: human recombinant COX2 (hCOX2) (UniProt P35354)
Sequence (P35354 1-604): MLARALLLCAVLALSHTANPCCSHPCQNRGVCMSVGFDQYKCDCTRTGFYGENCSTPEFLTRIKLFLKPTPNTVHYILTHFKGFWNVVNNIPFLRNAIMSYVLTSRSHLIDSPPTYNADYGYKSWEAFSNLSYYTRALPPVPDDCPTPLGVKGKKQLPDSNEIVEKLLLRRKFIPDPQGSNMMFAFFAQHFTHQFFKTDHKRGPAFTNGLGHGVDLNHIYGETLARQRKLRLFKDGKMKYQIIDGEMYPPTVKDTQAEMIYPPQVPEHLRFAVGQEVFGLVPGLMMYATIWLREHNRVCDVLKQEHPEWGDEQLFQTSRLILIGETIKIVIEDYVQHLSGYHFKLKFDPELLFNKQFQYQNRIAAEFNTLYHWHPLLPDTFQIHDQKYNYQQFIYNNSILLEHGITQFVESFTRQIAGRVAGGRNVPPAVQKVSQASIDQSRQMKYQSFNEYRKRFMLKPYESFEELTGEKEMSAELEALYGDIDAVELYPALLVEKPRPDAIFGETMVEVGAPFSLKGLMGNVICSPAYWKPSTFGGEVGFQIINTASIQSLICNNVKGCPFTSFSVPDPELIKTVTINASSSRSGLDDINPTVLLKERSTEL
test_protocol: LCMS-based COX2 enzymatic inhibition assay (PGE2 quantification)
Type: biochemical
Set-up: COX2 2 minutes pge2/pge2d4 area ratio Avg; other: 2 minutes; readout pge2/pge2d4 area ratio; average; COX2 2 minutes pge2/pge2d4 area ratio Avg; LLE; average LLE; COX2 2 minutes pge2 area (counts) Avg; readout pge2 area (counts); other: 2 min; "ovine COX2 (oCOX2), human recombinant COX2 (hCOX2)"
settings: 2 minutes; readout pge2 area (counts); average; read-out: COX2 2 minutes pge2 area (counts) Avg. IC50
Threshold 1000 nM: IC50 strictly smaller gives true (1), otherwise false (0).

Prompt: Hello, is IC50 of the following molecule strictly smaller than 1000 nM? CS(=O)(=O)c1ccc(-c2cccc(NCc3cnoc3)n2)cc1
Completion: true (1)

Prompt: And what about the molecule CS(=O)(=O)c1ccc(-c2cccc(NCc3ccn[nH]3)n2)cc1 ?
Completion: false (0)

Prompt: Do the same for COc1ncc(OCc2cccs2)nc1-c1ccc(S(C)(=O)=O)cc1 please
Completion: true (1)

Prompt: Now the molecule CS(=O)(=O)c1ccc(-c2cnc(F)c(NCc3cccs3)n2)cc1
Completion: true (1)

Prompt: Please do the same for CS(=O)(=O)c1ccc(-c2cncc(/C=C/c3cccs3)n2)cc1 as well.
Completion: false (0)

Prompt: Queued: CS(=O)(=O)c1ccc(-c2cnc3ncn(Cc4cccs4)c3n2)cc1
Completion: false (0)

Prompt: How about this molecule: CS(=O)(=O)c1ccc(-c2cncc(NCc3cccs3)n2)cc1
Completion: true (1)

Prompt: Also CS(=O)(=O)c1ccc(-n2ccc3ccc([C@H](O)c4cccs4)nc32)cc1 (single isomer, unassigned) , if possible.
Completion: true (1)

Prompt: Again, but for COc1ncc(NCc2cnco2)nc1-c1ccc(S(C)(=O)=O)cc1
Completion: false (0)

Prompt: Same again, this time with CS(=O)(=O)c1ccc(-c2cncc(NCc3cccs3)n2)cn1
Completion: true (1)

====

target_or_test_system: ovine COX-1 (oCOX-1) (Ovis aries)
Construct: purchased Cayman Chemicals (Ann Arbor, Mich.)
Sequence (P05979 25-600): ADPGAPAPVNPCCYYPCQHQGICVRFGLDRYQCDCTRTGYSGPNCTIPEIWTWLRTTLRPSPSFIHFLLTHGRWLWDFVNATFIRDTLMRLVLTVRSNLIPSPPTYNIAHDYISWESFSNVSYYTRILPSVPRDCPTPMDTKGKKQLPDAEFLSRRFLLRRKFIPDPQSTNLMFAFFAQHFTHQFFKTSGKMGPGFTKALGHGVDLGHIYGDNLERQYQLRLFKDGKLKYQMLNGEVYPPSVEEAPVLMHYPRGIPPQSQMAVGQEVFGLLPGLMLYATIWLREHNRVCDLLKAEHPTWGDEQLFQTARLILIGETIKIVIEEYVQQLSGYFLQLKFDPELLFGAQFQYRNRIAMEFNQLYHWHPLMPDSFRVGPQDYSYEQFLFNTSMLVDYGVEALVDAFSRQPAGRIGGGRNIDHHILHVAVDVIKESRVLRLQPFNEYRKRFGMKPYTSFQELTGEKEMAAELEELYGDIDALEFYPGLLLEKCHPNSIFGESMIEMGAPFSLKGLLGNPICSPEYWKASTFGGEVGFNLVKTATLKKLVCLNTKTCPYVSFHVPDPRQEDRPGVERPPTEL
test_protocol: LCMS-based COX-1 enzymatic inhibition assay (PGE2 quantification)
Format: biochemical
settings: 10 minutes; readout pge2 area (counts); average; read-out: COX1 10 minutes pge2 area (counts) Avg. IC50
Lab note: cut-off is 30 µM. Strictly less in IC50 is Yes. Exactly 30 µM or more is No.

Prompt: Does the reported IC50 of CS(=O)(=O)c1ccc(-c2cccc(OCc3ccc(F)s3)n2)cc1 stay below 30 µM?
Completion: No

Prompt: Then what about the molecule CS(=O)(=O)c1ccc(-c2cccc(OCc3cccs3)n2)nc1 ?
Completion: No

Prompt: Could you do the same for Cc1ncc(-c2ccc(S(C)(=O)=O)cc2)nc1OCc1cccs1 , please?
Completion: Yes

Prompt: Would you kindly repeat that for CS(=O)(=O)c1ccc(-c2ccc(F)c(NCc3ccco3)n2)cc1 ?
Completion: No

Prompt: Proceed to CS(=O)(=O)c1ccc(-c2cccc(OCc3ccoc3)n2)cc1
Completion: No

Prompt: Would you mind doing C[C@H](Oc1cccc(-c2ccc(S(C)(=O)=O)cc2)n1)c1cccs1 (single isomer, unassigned) as well?
Completion: No

Prompt: # iterate: CN(Cc1cccs1)c1cncc(-c2ccc(S(C)(=O)=O)cc2)n1
Completion: Yes

====

target_or_test_system: human recombinant COX2 (hCOX2)
test_protocol: LCMS-based COX2 enzymatic inhibition assay (PGE2 quantification)
Assay type: biochemical
Design: COX2 2 minutes pge2/pge2d4 area ratio Avg; other: 2 minutes; readout pge2/pge2d4 area ratio; average; COX2 2 minutes pge2/pge2d4 area ratio Avg; LLE; average LLE; COX2 2 minutes pge2 area (counts) Avg; readout pge2 area (counts); other: 2 min; "ovine COX2 (oCOX2), human recombinant COX2 (hCOX2)"
settings: 2 minutes; readout pge2 area (counts); average LLE
Description: We have adapted a previously reported cyclooxygenase enzymatic assay utilizing LCMS quantification of PGE2 as the product of COX-1 and COX2 catalyzed conversion of arachidonic acid to evaluate the binding properties of newly synthesized ligands [Cao, 2011]. […] Using these enzymatic assays, we have evaluated>200 newly synthesized ligands against COX2 and >20 ligands against COX-1. […]
property: COX2 2 minutes pge2 area (counts) Avg. LLE

Prompt: Field: COX2 2 minutes pge2 area (counts) Avg. LLE (human recombinant COX2 (hCOX2)). Entry: CS(=O)(=O)c1ccc(-c2cccc(NCc3ccc(F)o3)n2)cc1
Completion: 4.619

Prompt: Next: CS(=O)(=O)c1ccc(-c2cccc(NCc3ccc(F)cc3)n2)cc1
Completion: 4.59

Prompt: Field entry: COc1ncc(NCc2ccccc2)nc1-c1ccc(S(C)(=O)=O)cc1
Completion: 5.228

====

test_protocol: Human Microsome Stability
Assay type: in vitro ADME
settings: human microsomes
property: Human Microsome Stability % Remaining Avg (%)
State just the number; it will be interpreted in %.

Prompt: Tell me the measured Human Microsome Stability % Remaining Avg of CS(=O)(=O)c1ccc(-c2cccc(NCc3ccc(F)cc3)n2)cc1 [Compound 13] , please.
Completion: 62

Prompt: Then this compound: Cc1occc1CNc1cccc(-c2ccc(S(C)(=O)=O)cc2)n1 [Compound 21]
Completion: 36

Prompt: Could you do the same for CS(=O)(=O)c1ccc(-c2ccc3ccn(Cc4ccoc4)c3n2)cc1 [Compound 26] , please?
Completion: 43

Prompt: What do you get for CS(=O)(=O)c1ccc(-c2cccc(NCc3ccc(F)o3)n2)cc1 [Compound 23] ?
Completion: 11

Prompt: Next up: CS(=O)(=O)c1ccc(-c2cccc(OCc3cccs3)n2)cc1 [Compound 1]
Completion: 38

Prompt: Another compound to look at: CS(=O)(=O)c1ccc(-c2cc(F)cc(NCc3ccco3)n2)cc1 [Compound 14]
Completion: 21

Prompt: And for CS(=O)(=O)c1ccc(-c2cncc(NCc3cccs3)n2)cc1 [Compound 98] ?
Completion: 23.8

Prompt: What about CS(=O)(=O)c1ccc(-c2nc(NCc3ccco3)ccc2F)cc1 [Compound 218] ?
Completion: 15

Prompt: Try the compound CS(=O)(=O)c1ccc(-c2cccc(/C=C\c3ccoc3)n2)cc1 [Compound 35]
Completion: 19

Prompt: And the next one, COc1ncc(NCc2cccs2)nc1-c1ccc(S(C)(=O)=O)cc1 [Compound 29] ?
Completion: 24

Prompt: Same thing, different compound: Cc1cc(CNc2cccc(-c3ccc(S(C)(=O)=O)cc3)n2)co1 [Compound 27]
Completion: 8.8

Prompt: Also, CS(=O)(=O)c1ccc(-c2ccc(F)c(NCc3ccoc3)n2)cc1 [Compound 33] please.
Completion: 40

Prompt: Same lookup for CS(=O)(=O)c1ccc(-c2cccc(OCc3ccoc3)n2)cc1 [Compound 16] , please.
Completion: 24

Prompt: Could you do the same for CS(=O)(=O)c1ccc(-c2cc(F)cc(NCc3ccoc3)n2)cc1 [Compound 34] , please?
Completion: 48

Prompt: Try this compound next: CS(=O)(=O)c1ccc(-c2cncc(NCc3cccs3)n2)cn1 [Compound 141]
Completion: 55

Every entry's value here was drawn from patent US20220348590A1.
